Task for the reader: assign each of the following molecules its reported pEC50.
testedTarget: hTRPM8 (Homo sapiens, UniProt Q7Z2W7)
Sequence (Q7Z2W7 whole entry): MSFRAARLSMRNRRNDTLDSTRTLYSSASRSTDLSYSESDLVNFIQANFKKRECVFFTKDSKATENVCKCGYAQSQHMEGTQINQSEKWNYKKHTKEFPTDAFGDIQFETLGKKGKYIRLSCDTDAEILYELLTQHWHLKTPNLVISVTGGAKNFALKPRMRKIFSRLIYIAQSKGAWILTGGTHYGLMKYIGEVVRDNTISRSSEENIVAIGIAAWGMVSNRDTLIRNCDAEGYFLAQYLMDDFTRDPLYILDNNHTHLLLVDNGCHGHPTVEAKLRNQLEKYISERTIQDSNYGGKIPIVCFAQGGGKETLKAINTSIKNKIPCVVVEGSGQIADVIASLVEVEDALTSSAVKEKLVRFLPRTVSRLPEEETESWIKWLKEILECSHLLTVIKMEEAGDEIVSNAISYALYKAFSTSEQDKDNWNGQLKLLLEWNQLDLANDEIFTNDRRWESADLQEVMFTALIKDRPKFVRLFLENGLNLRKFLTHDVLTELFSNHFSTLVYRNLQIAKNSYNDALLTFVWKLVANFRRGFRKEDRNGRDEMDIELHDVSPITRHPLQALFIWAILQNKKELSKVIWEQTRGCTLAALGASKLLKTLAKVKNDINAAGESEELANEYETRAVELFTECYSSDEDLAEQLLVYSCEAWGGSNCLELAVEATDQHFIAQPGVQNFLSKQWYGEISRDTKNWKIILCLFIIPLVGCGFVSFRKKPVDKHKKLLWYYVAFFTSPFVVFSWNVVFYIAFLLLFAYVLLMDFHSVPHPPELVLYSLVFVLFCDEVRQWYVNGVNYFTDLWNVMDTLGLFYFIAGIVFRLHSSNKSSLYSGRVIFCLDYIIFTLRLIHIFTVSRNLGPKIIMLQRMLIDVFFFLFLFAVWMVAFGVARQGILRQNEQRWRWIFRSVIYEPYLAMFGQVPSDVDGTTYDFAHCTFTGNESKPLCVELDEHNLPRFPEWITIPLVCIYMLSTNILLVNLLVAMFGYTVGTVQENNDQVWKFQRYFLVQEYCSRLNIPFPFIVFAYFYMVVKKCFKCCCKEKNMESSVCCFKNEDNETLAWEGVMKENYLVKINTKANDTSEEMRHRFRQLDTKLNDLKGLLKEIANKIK
protocolDetails: Assay on TRPM8 modulators: calcium imaging (Fluo-4, Flexstation) in HEK293 cell line stably expressing hTRPM8
conditionSummary: HEK293 cells stably expressing hTRPM8; calcium influx, Fluo-4, Flexstation 3; sigmoidal dose-response fit
pEC50: −log10 of the molar value.

Need pEC50 for each of these molecules.
1. CC(C(=O)N1CCCCC1c1nc(-c2ccccc2)c[nH]1)C1CC1 (stereo not drawn) [Compound 151]
2. Cc1ccc(C(C)C(=O)N2CCCCC2c2nc(-c3ccccc3)c[nH]2)o1 (stereo not drawn) [Compound 91]
3. CSC(C)C(=O)N1CCCCC1c1nc(-c2cccc(C)c2)c[nH]1 (stereo not drawn) [Compound 111]
4. CCCc1ccc(-c2cnc(C3CCCCN3C(=O)C(C)SC)[nH]2)cc1 (stereo not drawn) [Compound 125]
5. CSC(C)C(=O)N1CCCCC1c1ncc(-c2ccc(Cl)c(F)c2)[nH]1 (stereo not drawn) [Compound 76]
6. COC(C)C(=O)N1CCCCC1c1nc(-c2ccccc2)c[nH]1 (stereo not drawn) [Compound 159]
7. Cc1ccc(-c2cnc(C3CCCCN3C(=O)C(C)C)[nH]2)cc1 (stereo not drawn) [Compound 170]

Response:
1: 6.52 to 7.30; 2: 6.52 to 7.30; 3: 6.52 to 7.30; 4: > 7.30; 5: > 7.30; 6: 4.46 to 6.00; 7: > 7.30

Below are 3 molecules. Give each one its pEC50.
1. CSC(C)C(=O)N1CCCCC1c1nnn(-c2ccc(C)cc2)n1 (stereo not drawn) [Compound 104]
2. CSC(C)C(=O)N1CCCCC1c1nnc(-c2ccc(C)cc2)[nH]1 (stereo not drawn) [Compound 131]
3. CCC(C)(C)C(=O)N1CCCCC1c1ncc(-c2ccc(C)cc2)[nH]1 (stereo not drawn) [Compound 143]

Response:
> 7.30
> 7.30
> 7.30
